System: human dermal fibroblasts
measurement protocol: Human cell toxicity, resazurin viability
Format: cell-based
assay context: human, 48 h
quantity measured: CC50

Ask: Need CC50, item `C[n+]1ccccc1/C=C/[C@H](Cc1ccccc1)NC(=O)[C@H](Cc1ccccc1)NC(=O)OCc1ccccc1.[I-]`
Result: > 100 µM

###

target desc: UniProt P25779
measurement protocol: biochemical
assay context: apparent initial inhibition constant; 25° C., pH 7.5; read-out: Ki
pKi: −log10 of the molar value.
Decision: pKi compared against 5; not below it gives Fulfilled, below it gives Not fulfilled.

* CN1CCN(C(=O)N[C@@H](Cc2ccccc2)C(=O)N[C@H](/C=C/C(N)=O)CCc2ccccc2)CC1 [Compound 4] | Fulfilled

Ask: I'd appreciate it if you could say whether O=C(N[C@@H](Cc1ccccc1)C(=O)N[C@H](/C=C/c1ccccn1)Cc1ccccc1)OCc1ccccc1 [Compound 11] has pKi at least equal to 5.
Result: Fulfilled

Ask: I'd appreciate it if you could say whether C[n+]1ccccc1/C=C/[C@H](CCc1ccccc1)NC(=O)[C@H](Cc1ccccc1)NC(=O)OCc1ccccc1 [Compound 15] has pKi at least equal to 5.
Result: Fulfilled

Ask: I'd appreciate it if you could say whether NCCCC[C@@H](/C=C/c1ccccn1)NC(=O)[C@H](Cc1ccccc1)NC(=O)OCc1ccccc1 [Compound 20] has pKi at least equal to 5.
Result: Not fulfilled

Ask: I'd appreciate it if you could say whether O=C(N[C@@H](Cc1ccccc1)C(=O)N[C@H](/C=C/c1ccccc1)Cc1ccccc1)OCc1ccccc1 [Compound 5] has pKi at least equal to 5.
Result: Fulfilled

Ask: I'd appreciate it if you could say whether C[C@@H](/C=C/c1ncccn1)NC(=O)[C@H](Cc1ccccc1)NC(=O)OCc1ccccc1 [Compound 10] has pKi at least equal to 5.
Result: Not fulfilled

###

target desc: cruzain (Trypanosoma cruzi)
measurement protocol: biochemical
assay context: conversion of EI* back to EI; from kobs replot or recovery after preincubation and dilution
Can you tell me k4 for the items I'm about to list?
Numbers only, in s⁻¹.

- O=C(N[C@@H](Cc1ccccc1)C(=O)N[C@H](/C=C/c1ccccn1)Cc1ccccc1)OCc1ccccc1: 0.0012

Here's the next entry for you.
Ask: Need k4, item `O=C(N[C@@H](Cc1ccccc1)C(=O)N[C@H](/C=C/c1ncccn1)Cc1ccccc1)OCc1ccccc1`
Result: 0.0018

###

target desc: cruzain (Trypanosoma cruzi)
measurement protocol: Kinetic parameters of peptide substrates for cruzain
Assay type: biochemical
assay context: relative to Cbz-Phe-Arg-AMC
Non-standard residues stand in square brackets, D forms with d. Residues, ends and D or L forms follow the SMILES beside them. *: point of attachment. hPhe = N[CH](CCc1ccccc1)C(=O)O; 4Pal = N[C@@H](Cc1ccncc1)C(=O)O; AMC = Cc1cc(=O)oc2cc(N*)ccc12; Cbz = O=C(OCc1ccccc1)*
quantity measured: kcat rel
Numbers only.

Here are 4 compounds together with their reported answers.
- Cc1cc(=O)oc2cc(NC(=O)[C@H](CCc3ccccc3)NC(=O)[C@H](Cc3ccncc3)NC(=O)OCc3ccccc3)ccc12 [Compound S8, Cbz-(4-Pyr)Ala-hPhe-AMC] (Cbz-[4Pal]-[hPhe]-{AMC}): 0.55
- Cc1cc(=O)oc2cc(NC(=O)[C@H](CCCN=C(N)N)NC(=O)[C@H](Cc3ccccc3)NC(=O)OCc3ccccc3)ccc12 [Compound S1, Cbz-Phe-Arg-AMC] (Cbz-Phe-Arg-{AMC}): 1.00
- Cc1cc(=O)oc2cc(NC(=O)[C@H](CCCN=C(N)N)NC(=O)[C@H](CCCN=C(N)N)NC(=O)OCc3ccccc3)ccc12 [Compound S6, Cbz-Arg-Arg-AMC] (Cbz-Arg-Arg-{AMC}): 0.75
- Cc1cc(=O)oc2cc(NC(=O)[C@H](Cc3ccccc3)NC(=O)[C@H](Cc3ccccc3)NC(=O)N3CCN(C)CC3)ccc12 [Compound S11, NMePip-Phe-Phe-AMC]: 0.29

Here's the next entry for you.
Ask: Need kcat rel, item Cc1cc(=O)oc2cc(NC(=O)C(CCc3ccccc3)NC(=O)C(CC(C)C)NC(=O)OCc3ccccc3)ccc12 (stereo not drawn) [Compound S3, Cbz-Leu-hPhe-AMC] (Cbz-Leu-[hPhe]-{AMC}; configuration not given here)
Result: 0.21

###

Can you tell me Km for the items I'm about to list?
target desc: cruzain (Trypanosoma cruzi, UniProt P25779)
Sequence (P25779 123-467 limits assumed): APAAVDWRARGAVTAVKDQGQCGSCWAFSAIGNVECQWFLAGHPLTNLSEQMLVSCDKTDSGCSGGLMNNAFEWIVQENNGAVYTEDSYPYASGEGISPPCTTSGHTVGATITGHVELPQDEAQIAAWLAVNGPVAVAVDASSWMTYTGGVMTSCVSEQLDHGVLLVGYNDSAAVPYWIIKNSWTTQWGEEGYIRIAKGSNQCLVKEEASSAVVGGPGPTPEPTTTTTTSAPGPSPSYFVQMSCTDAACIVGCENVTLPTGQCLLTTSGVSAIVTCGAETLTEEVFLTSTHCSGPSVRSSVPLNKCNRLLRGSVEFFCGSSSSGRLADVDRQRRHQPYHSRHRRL
measurement protocol: Kinetic parameters of peptide substrates for cruzain
Format: biochemical
assay context: pH 7.5, 25° C., 10% DMSO
Non-standard residues stand in square brackets, D forms with d. Residues, ends and D or L forms follow the SMILES beside them. *: point of attachment. hPhe = N[CH](CCc1ccccc1)C(=O)O; AMC = Cc1cc(=O)oc2cc(N*)ccc12; Cbz = O=C(OCc1ccccc1)*
State the result as a value with its unit after it.

Here are 2 compounds together with their reported answers.
* Cc1cc(=O)oc2cc(NC(=O)[C@H](Cc3ccccc3)NC(=O)[C@H](Cc3ccccc3)NC(=O)OCc3ccccc3)ccc12 [Compound S9, Cbz-Phe-Phe-AMC] (Cbz-Phe-Phe-{AMC}) | 0.34 µM
* Cc1cc(=O)oc2cc(NC(=O)C(CCc3ccccc3)NC(=O)C(Cc3ccccc3)NC(=O)N3CCN(C)CC3)ccc12 (stereo not drawn) [Compound S7, NMePip-Phe-hPhe-AMC] | 3.1 µM

Here's the next entry for you.
Ask: Need Km, item Cc1cc(=O)oc2cc(NC(=O)C(CCc3ccccc3)NC(=O)C(CC(C)C)NC(=O)OCc3ccccc3)ccc12 (stereo not drawn) [Compound S3, Cbz-Leu-hPhe-AMC] (Cbz-Leu-[hPhe]-{AMC}; configuration not given here)
Result: 0.8 µM

###

target desc: cruzain (Trypanosoma cruzi, UniProt P25779)
measurement protocol: Kinetic parameters of peptide substrates for cruzain
Format: biochemical
assay context: relative to Cbz-Phe-Arg-AMC
Can you tell me kcat rel for the items I'm about to list?
One number for each entry.

Here are 2 compounds together with their reported answers.
• Cc1cc(=O)oc2cc(NC(=O)C(C)NC(=O)C(Cc3ccccc3)NC(=O)OCc3ccccc3)ccc12 (stereo not drawn) = 0.09
• Cc1cc(=O)oc2cc(NC(=O)C(CCc3ccccc3)NC(=O)C(CCCN=C(N)N)NC(=O)OCc3ccccc3)ccc12 (stereo not drawn) = 0.51

Here's the next entry for you.
Ask: Need kcat rel, item `Cc1cc(=O)oc2cc(NC(=O)[C@H](CCCN=C(N)N)NC(=O)[C@H](CC(C)C)NC(=O)OCc3ccccc3)ccc12`
Result: 0.88

###

measurement protocol: Thiolation of inhibitors with glutathione, LCMS
Assay type: physicochemical
assay context: 1 mM glutathione, 0.5 mM compound, Tris pH 8.0, 10% DMSO, room temperature
quantity measured: Rate of Thiolation, k (mM⁻¹ min⁻¹)
One number for each entry, in mM⁻¹ min⁻¹.

Here are 3 compounds together with their reported answers.
• C[n+]1ccccc1/C=C/[C@H](CCc1ccccc1)NC(=O)[C@H](Cc1ccccc1)NC(=O)OCc1ccccc1 = 0.054
• C[n+]1ccccc1/C=C/[C@H](Cc1ccccc1)NC(=O)[C@H](Cc1ccccc1)NC(=O)OCc1ccccc1.[I-] = 0.037
• C[n+]1ccsc1/C=C/[C@H](Cc1ccccc1)NC(=O)[C@H](Cc1ccccc1)NC(=O)OCc1ccccc1.[I-] = 0.015

Here's the next entry for you.
Ask: Need Rate of Thiolation, k, item CN1CCN(C(=O)N[C@@H](Cc2ccccc2)C(=O)N[C@H](/C=C/S(=O)(=O)c2ccccc2)CCc2ccccc2)CC1 [Compound K11777, reference compound]
Result: 0.00028

###

target desc: human cathepsin S (Homo sapiens (Human), UniProt P25774)
Sequence (P25774 115-331): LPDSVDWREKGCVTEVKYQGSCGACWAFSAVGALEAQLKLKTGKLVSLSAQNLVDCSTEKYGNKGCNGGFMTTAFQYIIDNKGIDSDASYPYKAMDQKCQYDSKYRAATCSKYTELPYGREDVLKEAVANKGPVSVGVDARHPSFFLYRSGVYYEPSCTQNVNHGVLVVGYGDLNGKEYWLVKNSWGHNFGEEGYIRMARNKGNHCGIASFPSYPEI
Can you tell me pKi for the items I'm about to list?
Numbers only, as −log10 of the molar value.

Here are 2 compounds together with their reported answers.
* O=C(N[C@@H](Cc1ccccc1)C(=O)N[C@H](/C=C/c1ccccn1)Cc1ccccc1)OCc1ccccc1 [Compound 11] | 5.74
* O=C(N[C@@H](Cc1ccccc1)C(=O)N[C@H](/C=C/c1ncccn1)Cc1ccccc1)OCc1ccccc1 [Compound 7] | 6.43

For every item below, please supply its pKi.
1. C[n+]1ccccc1/C=C/[C@H](Cc1ccccc1)NC(=O)[C@H](Cc1ccccc1)NC(=O)OCc1ccccc1.[I-] [Compound 12]
2. C[n+]1ccccc1/C=C/[C@H](CCc1ccccc1)NC(=O)[C@H](Cc1ccccc1)NC(=O)OCc1ccccc1 [Compound 15]

Result:
1. 6.06
2. 6.49

###

Can you tell me Ki for the items I'm about to list?
target desc: cruzain (Trypanosoma cruzi, UniProt P25779)
measurement protocol: biochemical
assay context: Ki* Cruzain, obtained >10 minutes following initiation of reaction by addition of enzyme; pH 7.5

* Cc1ccc2c(c1)C[C@H](NC(=O)[C@H](Cc1ccccc1)NC(=O)OCc1ccccc1)C(O)O2 (stereo partly drawn) | 100 nM
* C[n+]1ccccc1/C=C/[C@H](Cc1ccccc1)NC(=O)[C@H](Cc1ccccc1)NC(=O)OCc1ccccc1.[I-] | 120 to 400 nM

Here's the next entry for you.
Ask: Need Ki, item `O=C(N[C@@H](Cc1ccccc1)C(=O)N[C@H](/C=C/c1ccccn1)Cc1ccccc1)OCc1ccccc1`
Result: 120 to 400 nM

Value source: patent US20240150396A1
